measured.on: UniProtKB Q2K340
Sequence (Q2K340 1-1154): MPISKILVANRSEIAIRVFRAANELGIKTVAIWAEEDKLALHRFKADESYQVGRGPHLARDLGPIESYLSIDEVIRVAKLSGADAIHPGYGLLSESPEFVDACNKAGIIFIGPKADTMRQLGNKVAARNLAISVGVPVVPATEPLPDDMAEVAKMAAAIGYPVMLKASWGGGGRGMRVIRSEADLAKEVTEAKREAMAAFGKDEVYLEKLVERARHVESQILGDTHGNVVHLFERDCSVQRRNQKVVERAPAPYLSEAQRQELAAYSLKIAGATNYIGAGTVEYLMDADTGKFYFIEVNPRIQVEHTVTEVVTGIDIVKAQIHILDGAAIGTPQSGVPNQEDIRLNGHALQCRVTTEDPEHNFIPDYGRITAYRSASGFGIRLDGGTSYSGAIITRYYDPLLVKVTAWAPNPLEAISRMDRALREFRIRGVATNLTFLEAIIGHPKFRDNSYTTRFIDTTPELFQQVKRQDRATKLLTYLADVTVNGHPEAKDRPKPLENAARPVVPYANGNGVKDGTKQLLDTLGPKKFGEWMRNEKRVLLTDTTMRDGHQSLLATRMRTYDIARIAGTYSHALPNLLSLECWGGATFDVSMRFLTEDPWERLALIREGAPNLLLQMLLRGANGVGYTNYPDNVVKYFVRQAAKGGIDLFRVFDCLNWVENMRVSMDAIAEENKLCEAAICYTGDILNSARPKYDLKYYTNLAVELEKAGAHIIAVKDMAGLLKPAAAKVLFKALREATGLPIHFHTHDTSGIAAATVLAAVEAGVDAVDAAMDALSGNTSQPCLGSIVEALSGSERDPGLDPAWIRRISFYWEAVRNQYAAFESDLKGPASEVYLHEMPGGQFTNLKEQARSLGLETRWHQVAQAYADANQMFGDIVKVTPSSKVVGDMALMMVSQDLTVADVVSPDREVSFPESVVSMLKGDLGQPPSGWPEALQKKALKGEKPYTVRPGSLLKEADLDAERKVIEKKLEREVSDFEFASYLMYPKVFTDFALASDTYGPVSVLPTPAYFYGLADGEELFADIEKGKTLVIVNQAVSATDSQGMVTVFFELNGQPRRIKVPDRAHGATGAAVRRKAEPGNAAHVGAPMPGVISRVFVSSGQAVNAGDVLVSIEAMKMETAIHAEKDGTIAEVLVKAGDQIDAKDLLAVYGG
metric: pKi
Recall that pKi is obtained by taking minus log10 of the concentration measured in molar.

Hi! What's the reported pKi for N[C@@H](CC(=O)O)C(=O)O [L-aspartate] on UniProtKB Q2K340?
2.90

Where do the numbers come from? From paper PMC4238798.
